The values you see were collected from patent US20090175860A1.

# system under test: rhesus c-Met on 4MBr-5 cells (rhesus)
# protocol description: cell-based or functional assay
endpoint label: EC50 [nM] Inhibition of HGF driven proliferation 4MBr-5 in 10% serum (nM)
A number alone suffices; assume nM.

These recorded examples may help you get a feel for the data.
{"binder": "05097 in IgG format (antibody, V domains shown) VH: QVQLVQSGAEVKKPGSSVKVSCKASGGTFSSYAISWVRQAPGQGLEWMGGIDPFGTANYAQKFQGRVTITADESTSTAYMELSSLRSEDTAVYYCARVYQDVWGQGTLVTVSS VL: DIVMTQSPDSLAVSLGERATINCRSSQSILYGINNNFLGWYQQKPGQPPKLLIYWASTRESGVPDRFSGSGSGTDFTLTISSLQAEDVAVYYCQQYAFGWTFGQGTKVEIKR", "reading": 1.6}
{"binder": "05098 in IgG format (antibody, V domains shown) VH: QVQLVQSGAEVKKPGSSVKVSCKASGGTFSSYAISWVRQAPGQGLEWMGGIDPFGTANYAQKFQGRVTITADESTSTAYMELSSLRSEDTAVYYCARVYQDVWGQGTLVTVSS VL: DIVMTQSPDSLAVSLGERATINCRSSQSILYGINNNFLGWYQQKPGQPPKLLIYWASTRESGVPDRFSGSGSGTDFTLTISSLQAEDVAVYYCLQYSDEPWTFGQGTKVEIKR", "reading": 0.5}
{"binder": "05185 in IgG format (antibody, V domains shown) VH: QVQLVQSGAEVKKPGSSVKVSCKASGGTFSSYAISWVRQAPGQGLEWMGGIDPIMGTEYAQKFQGRVTITADESTSTAYMELSSLRSEDTAVYYCARVYQDVWGQGTLVTVSS VL: DIVMTQSPDSLAVSLGERATINCRSSQSILYGINNNFLGWYQQKPGQPPKLLIYWASTRESGVPDRFSGSGSGTDFTLTISSLQAEDVAVYYCQQYAYEPNTFGQGTKVEIKR", "reading": 0.13}

// EC50 [nM] Inhibition of HGF driven proliferation 4MBr-5 in 10% serum lookup, binder = 05091 in IgG format (antibody, V domains shown) VH: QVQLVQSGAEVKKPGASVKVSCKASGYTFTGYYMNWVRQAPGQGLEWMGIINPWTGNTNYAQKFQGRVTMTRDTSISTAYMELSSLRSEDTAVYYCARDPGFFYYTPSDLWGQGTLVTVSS VL: DIELTQPPSVSVAPGQTARISCSGDSIGNKYVHWYQQKPGQAPVLVIYADSDRPSGIPERFSGSNSGNTATLTISGTQAEDEADYYCQSYAHYHDIWVFGGGTKLTVLG , result: 1.3
